Test Target: Human HDAC1 (Homo sapiens (Human), UniProt Q13547)
Sequence (Q13547 whole entry): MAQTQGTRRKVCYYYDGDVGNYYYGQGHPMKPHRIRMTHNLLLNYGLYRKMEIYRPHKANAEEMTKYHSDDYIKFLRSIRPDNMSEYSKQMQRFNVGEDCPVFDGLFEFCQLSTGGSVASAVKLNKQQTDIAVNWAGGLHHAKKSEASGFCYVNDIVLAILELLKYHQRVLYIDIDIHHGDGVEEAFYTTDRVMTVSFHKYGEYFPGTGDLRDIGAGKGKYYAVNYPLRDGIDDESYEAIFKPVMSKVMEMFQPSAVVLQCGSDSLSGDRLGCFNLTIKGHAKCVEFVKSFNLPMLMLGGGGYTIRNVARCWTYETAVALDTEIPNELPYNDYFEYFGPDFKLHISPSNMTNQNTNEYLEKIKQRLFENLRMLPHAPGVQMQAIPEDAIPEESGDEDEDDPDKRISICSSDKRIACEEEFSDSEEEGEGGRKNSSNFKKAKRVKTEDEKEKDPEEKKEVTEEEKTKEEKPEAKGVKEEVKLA
Test Description: HDAC1 fluorogenic peptide deacetylation inhibition assay
Type: biochemical
Conditions Used: average of two experiments; read-out: HDAC Isoform IC50 (μM) 1
Endpoint Label: IC50 (µM)
Give bare numbers, in µM.

// known answers, use as guide
>>> print(df.to_string())
                                   compound   val
0                O=C(NO)c1ccc(Cc2ccncc2)cc1  6.47
1  Cc1c(CN(C)C)c2ccccc2n1Cc1ccc(C(=O)NO)cc1  3.09
2           O=C(NO)c1ccc(Cn2cnc3cncnc32)cc1  0.94

For every item in the list below, what is its measured IC50?
1. O=C(NO)c1ccc(CN(c2ccccc2)c2ccccc2)cc1
2. Cc1nc2ccccc2n1Cc1ccc(C(=O)NO)cc1
3. O=C(NO)c1ccc(Cn2cc(Cc3ccccc3)c3ccccc32)cc1
4. Cc1c(C)n(Cc2ccc(C(=O)NO)cc2)c2ccccc12

1. 6.66
2. 8.79
3. 13.2
4. 12.2

For every item in the list below, what is its measured IC50?
1. O=C(NO)c1ccc(CN2CCCC2)cc1
2. CC(=O)NCCCc1nc2ccccc2n1Cc1ccc(C(=O)NO)cc1
3. CN1CCN(CCc2cn(Cc3ccc(C(=O)NO)cc3)c3ccccc23)CC1 [Compound 17]
4. Cc1cc2ccccc2n1Cc1ccc(C(=O)NO)cc1

1: 29; 2: 14.7; 3: 1.23; 4: 5.34

For every item in the list below, what is its measured IC50?
1. O=C(NO)c1ccc(Cn2ccc3ccccc32)cc1
2. CN1CCN(CCc2cn(Cc3ccc(C(=O)NO)cc3)c3ccccc23)CC1 [drawing 142]
3. O=C(NO)c1ccc(Cn2cccn2)cc1
4. O=C(NO)c1ccc(Cn2cnc3ncncc32)cc1
5. CN(C)c1cccc(Cc2ccc(C(=O)NO)cc2)c1
6. Cc1cn(Cc2ccc(C(=O)NO)cc2)c2ccccc12

1. 5.83
2. 1.23
3. 1.47
4. 3.56
5. 12.2
6. 6.79

----------
Test Target: Human HDAC6 (Homo sapiens (Human), UniProt Q9UBN7)
Sequence (Q9UBN7 whole entry): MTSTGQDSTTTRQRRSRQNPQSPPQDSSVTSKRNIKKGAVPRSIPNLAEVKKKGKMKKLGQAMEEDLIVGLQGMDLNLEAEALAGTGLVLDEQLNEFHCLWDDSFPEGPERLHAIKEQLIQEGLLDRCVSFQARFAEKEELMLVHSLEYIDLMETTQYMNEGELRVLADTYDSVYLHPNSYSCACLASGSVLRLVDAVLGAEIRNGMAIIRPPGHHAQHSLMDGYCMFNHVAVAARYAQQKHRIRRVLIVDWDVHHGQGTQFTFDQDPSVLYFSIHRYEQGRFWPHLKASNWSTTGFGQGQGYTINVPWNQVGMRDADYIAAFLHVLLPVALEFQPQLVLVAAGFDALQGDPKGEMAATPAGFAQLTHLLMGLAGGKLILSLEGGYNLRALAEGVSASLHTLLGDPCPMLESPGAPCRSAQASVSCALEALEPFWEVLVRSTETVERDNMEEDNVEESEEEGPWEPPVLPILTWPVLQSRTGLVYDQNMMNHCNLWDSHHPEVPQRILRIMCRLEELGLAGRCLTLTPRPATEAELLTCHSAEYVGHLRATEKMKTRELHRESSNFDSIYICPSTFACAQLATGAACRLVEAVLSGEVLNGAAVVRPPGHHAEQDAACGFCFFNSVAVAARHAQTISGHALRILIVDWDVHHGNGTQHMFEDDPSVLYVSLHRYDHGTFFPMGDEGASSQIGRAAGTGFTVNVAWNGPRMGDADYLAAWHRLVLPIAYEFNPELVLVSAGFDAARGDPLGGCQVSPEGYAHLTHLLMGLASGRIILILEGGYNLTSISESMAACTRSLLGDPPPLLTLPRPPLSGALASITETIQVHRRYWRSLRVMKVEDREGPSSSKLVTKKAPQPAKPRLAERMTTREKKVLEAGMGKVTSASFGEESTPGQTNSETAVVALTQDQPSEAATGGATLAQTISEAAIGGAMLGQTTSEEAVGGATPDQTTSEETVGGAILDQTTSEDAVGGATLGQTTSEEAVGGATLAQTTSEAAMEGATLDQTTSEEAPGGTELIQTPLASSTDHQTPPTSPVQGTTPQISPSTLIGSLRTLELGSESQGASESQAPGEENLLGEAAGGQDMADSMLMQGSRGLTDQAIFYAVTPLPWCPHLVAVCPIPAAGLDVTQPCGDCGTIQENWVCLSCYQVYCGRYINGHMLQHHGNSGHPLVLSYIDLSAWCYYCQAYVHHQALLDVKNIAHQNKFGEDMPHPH
Test Description: HDAC6 fluorogenic peptide deacetylation inhibition assay
Type: biochemical
Conditions Used: average of two experiments; read-out: HDAC Isoform IC50 (μM) 6
Rule: IC50 below 0.04 µM gives 1 (yes). Equal to or above 0.04 µM gives 0 (no).

Check out these entries, answers already filled in.
In [3]: df
Out[3]:
                                   compound  assigned_category
0  O=C(NO)c1ccc(Cn2cnc3ncncc32)cc1 [Compound 14]            1 (yes)
1  COC[C@@H]1CCCN1Cc1ccc(C(=O)NO)cc1 [Compound 59]             0 (no)
2  CN(C)CCc1nc2ccccc2n1Cc1ccc(C(=O)NO)cc1 [Compound 38]             0 (no)

Dear reviewer, please state whether CC(C)c1nc2ccccc2n1Cc1ccc(C(=O)NO)cc1 [Compound 39] has IC50 strictly beneath 0.04 µM.
0 (no)

Dear reviewer, please state whether Cc1cc2ccccc2n1Cc1ccc(C(=O)NO)cc1 [Compound 4] has IC50 strictly beneath 0.04 µM.
1 (yes)

Dear reviewer, please state whether Cc1c(CN(C)C)c2ccccc2n1Cc1ccc(C(=O)NO)cc1 [Compound 21] has IC50 strictly beneath 0.04 µM.
1 (yes)

Dear reviewer, please state whether `Cc1c(CN)c2ccccc2n1Cc1ccc(C(=O)NO)cc1` has IC50 strictly beneath 0.04 µM.
1 (yes)

Dear reviewer, please state whether CN1CCN(CCc2cn(Cc3ccc(C(=O)NO)cc3)c3ccccc23)CC1 [drawing 142] has IC50 strictly beneath 0.04 µM.
1 (yes)

Dear reviewer, please state whether O=C(NO)c1ccc(Cc2ccncc2)cc1 [Compound 45] has IC50 strictly beneath 0.04 µM.
1 (yes)

----------
Test Target: Human HDAC6 (Homo sapiens (Human))
Test Description: HDAC6 fluorogenic peptide deacetylation inhibition assay
Format: biochemical
Conditions Used: Table 3; mean of two experiments ± standard deviation; read-out: HDAC6 IC50
Endpoint Label: pIC50
Answers are plain numbers, as −log10 of the molar value.

// known answers, use as guide
In [3]: df
Out[3]:
                                   compound                         test_target  endpoint_label   val
0  O=C(NO)c1ccc(Cn2ccc3ccccc32)cc1 [drawing 157]  Human HDAC6 (Homo sapiens (Human))           pIC50  8.01
1  Cc1cn(Cc2ccc(C(=O)NO)cc2)c2ccccc12 [drawing 159]  Human HDAC6 (Homo sapiens (Human))           pIC50  8.29

# input for lookup
Give pIC50; test system Human HDAC6 (Homo sapiens (Human)); compound Cc1cc2ccccc2n1Cc1ccc(C(=O)NO)cc1 [drawing 158]
8.60

----------
Test Target: HDAC5 (Homo sapiens (Human), UniProt Q9UQL6)
Sequence (Q9UQL6 whole entry): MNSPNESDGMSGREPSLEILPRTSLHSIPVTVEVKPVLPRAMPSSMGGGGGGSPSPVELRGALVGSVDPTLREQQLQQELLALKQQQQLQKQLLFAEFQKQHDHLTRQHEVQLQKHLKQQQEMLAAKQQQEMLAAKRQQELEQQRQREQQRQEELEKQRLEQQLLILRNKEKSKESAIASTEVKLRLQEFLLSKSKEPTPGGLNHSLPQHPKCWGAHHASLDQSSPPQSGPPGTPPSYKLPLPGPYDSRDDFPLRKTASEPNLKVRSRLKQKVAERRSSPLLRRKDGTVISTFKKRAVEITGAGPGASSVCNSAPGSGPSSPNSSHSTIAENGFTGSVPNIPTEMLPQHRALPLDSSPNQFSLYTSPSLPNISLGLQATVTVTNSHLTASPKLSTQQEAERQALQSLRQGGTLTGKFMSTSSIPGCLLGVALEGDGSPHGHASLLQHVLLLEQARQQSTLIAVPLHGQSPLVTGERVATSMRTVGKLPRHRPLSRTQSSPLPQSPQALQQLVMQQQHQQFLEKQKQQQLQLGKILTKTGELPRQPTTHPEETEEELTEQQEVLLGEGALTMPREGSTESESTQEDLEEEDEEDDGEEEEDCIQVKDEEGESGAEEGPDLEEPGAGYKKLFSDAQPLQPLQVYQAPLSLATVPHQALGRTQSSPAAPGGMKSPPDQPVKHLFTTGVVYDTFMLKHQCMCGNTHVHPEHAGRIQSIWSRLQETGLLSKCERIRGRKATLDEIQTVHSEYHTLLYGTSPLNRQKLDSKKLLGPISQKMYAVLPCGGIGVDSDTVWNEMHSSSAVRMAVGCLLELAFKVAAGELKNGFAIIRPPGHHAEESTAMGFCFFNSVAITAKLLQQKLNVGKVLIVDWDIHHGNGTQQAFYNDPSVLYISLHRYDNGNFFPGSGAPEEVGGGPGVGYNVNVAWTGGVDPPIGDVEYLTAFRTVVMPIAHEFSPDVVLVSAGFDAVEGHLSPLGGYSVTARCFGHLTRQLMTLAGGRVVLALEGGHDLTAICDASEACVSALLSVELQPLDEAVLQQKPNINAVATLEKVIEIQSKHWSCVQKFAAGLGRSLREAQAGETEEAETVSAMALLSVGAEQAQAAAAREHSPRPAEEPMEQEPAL
Test Description: HDAC5 inhibition assay (Acetyl-Lys(trifluoroacetyl)-AMC substrate)
Format: biochemical
Conditions Used: average of two experiments; read-out: HDAC Isoform IC50 (μM) 5
Endpoint Label: IC50 (µM)
Numbers only, in µM.

Using the record for `O=C(CCCCCCC(=O)Nc1ccc([C@H]2O[C@@H](CSc3nc(-c4ccccc4)c(-c4ccccc4)o3)C[C@@H](c3ccc(CO)cc3)O2)cc1)NO` , state its measured IC50.
3.35

----------
Test Target: HDAC8 (Homo sapiens (Human))
Sequence (Q9BY41 whole entry): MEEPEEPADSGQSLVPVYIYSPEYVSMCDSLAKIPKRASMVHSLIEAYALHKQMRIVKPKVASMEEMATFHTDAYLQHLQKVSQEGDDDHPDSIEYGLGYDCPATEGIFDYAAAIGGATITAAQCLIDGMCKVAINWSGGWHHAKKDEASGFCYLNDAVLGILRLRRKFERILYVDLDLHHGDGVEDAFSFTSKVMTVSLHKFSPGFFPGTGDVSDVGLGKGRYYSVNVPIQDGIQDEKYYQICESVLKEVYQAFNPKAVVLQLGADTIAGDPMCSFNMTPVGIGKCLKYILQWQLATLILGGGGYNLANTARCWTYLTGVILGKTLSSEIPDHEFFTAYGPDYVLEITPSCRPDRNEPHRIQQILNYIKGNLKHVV
Test Description: HDAC8 inhibition assay (fluorogenic diacyl peptide)
Format: biochemical
Conditions Used: Table 3; mean of two experiments ± standard deviation; read-out: HDAC8 IC50
Endpoint Label: IC50 (µM)
Answers are plain numbers, in µM.

>>> print(df.to_string())
                                   compound  endpoint_label  unit_name    val
0  O=C(NO)c1ccc(Cn2ccc3ccccc32)cc1 [drawing 157]            IC50         µM  0.417
1  O=C(NO)c1ccc(CN(c2ccccc2)c2ccccc2)cc1 [drawing 162]            IC50         µM   2.38
2  Cc1cc2ccccc2n1Cc1ccc(C(=O)NO)cc1 [drawing 158]            IC50         µM  0.397

# input for lookup
Using the record for Cc1cn(Cc2ccc(C(=O)NO)cc2)c2ccccc12 [drawing 159] , state its measured IC50.
0.911

----------
Test Target: UniProt:Q9UKV0
Sequence (Q9UKV0 whole entry): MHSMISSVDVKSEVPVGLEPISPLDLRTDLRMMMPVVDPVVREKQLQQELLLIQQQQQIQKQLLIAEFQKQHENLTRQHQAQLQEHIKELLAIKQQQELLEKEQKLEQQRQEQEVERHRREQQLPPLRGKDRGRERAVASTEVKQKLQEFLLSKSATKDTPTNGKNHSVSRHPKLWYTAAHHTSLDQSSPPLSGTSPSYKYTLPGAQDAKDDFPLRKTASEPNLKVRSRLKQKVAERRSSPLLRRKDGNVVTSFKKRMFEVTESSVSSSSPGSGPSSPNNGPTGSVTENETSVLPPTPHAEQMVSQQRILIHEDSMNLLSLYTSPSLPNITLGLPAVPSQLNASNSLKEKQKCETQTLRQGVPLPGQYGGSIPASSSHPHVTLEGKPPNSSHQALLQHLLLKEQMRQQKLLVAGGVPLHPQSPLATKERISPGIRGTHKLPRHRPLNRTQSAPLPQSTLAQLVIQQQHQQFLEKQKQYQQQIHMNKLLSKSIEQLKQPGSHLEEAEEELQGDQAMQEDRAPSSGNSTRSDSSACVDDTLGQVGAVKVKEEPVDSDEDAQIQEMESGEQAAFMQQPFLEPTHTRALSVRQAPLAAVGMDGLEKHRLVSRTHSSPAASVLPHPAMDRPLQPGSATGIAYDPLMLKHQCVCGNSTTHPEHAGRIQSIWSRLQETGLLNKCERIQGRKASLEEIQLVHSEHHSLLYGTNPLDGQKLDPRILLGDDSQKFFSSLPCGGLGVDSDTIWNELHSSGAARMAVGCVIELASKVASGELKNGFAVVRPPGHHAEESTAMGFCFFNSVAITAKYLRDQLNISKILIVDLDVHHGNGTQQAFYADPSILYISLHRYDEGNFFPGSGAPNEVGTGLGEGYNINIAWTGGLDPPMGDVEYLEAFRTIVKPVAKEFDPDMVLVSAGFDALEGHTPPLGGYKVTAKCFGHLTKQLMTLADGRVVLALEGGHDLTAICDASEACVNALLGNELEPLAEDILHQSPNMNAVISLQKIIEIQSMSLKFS
Test Description: HDAC9 inhibition assay (Acetyl-Lys(trifluoroacetyl)-AMC substrate)
Format: biochemical
Conditions Used: average of two experiments; read-out: HDAC Isoform IC50 (μM) 9
Endpoint Label: IC50 (µM)
One number for each entry, in µM.

// known answers, use as guide
In [3]: df
Out[3]:
                                   compound  endpoint_label   val
0  O=C(NO)c1ccc(Cn2ccc3ccccc32)cc1 [drawing 136]            IC50  8.16
1  Cc1cc2ccccc2n1Cc1ccc(C(=O)NO)cc1 [Compound 4]            IC50  18.3
2  Cc1cn(Cc2ccc(C(=O)NO)cc2)c2ccccc12 [drawing 138]            IC50  14.5
3  O=C(NO)c1ccc(Cn2ccc3ccccc32)cc1 [Compound 2]            IC50  8.16
4  Cc1cc2ccccc2n1Cc1ccc(C(=O)NO)cc1 [drawing 137]            IC50  18.3

# input for lookup
Using the record for Cc1cn(Cc2ccc(C(=O)NO)cc2)c2ccccc12 [Compound 6] , state its measured IC50.
14.5

----------
Test Target: Human HDAC6 (Homo sapiens (Human))
Test Description: HDAC6 fluorogenic peptide deacetylation inhibition assay
Format: biochemical
Conditions Used: read-out: HDAC6 IC50
Endpoint Label: IC50

Using the record for `Cc1cc2ccccc2n1Cc1ccc(C(=O)NO)cc1` , state its measured IC50.
2.5 nM

----------
Test Target: Human HDAC6 (Homo sapiens (Human), UniProt Q9UBN7)
Test Description: HDAC6 fluorogenic peptide deacetylation inhibition assay
Type: biochemical
Conditions Used: ratio HDAC1 IC50/HDAC6 IC50
Exercise: state measured HDAC6 Selectivity (HDAC1/HDAC6) for each of the molecules provided.
Numbers only.

// known answers, use as guide
In [3]: df
Out[3]:
                                   molecule   val
0  O=C(NO)c1ccc(Cn2cnc3cncnc32)cc1 [drawing 143]   270
1  CN(C)c1ccc(Cc2ccc(C(=O)NO)cc2)cc1 [drawing 146]   577
2   O=C(NO)c1ccc(Cn2cccc2)cc1 [drawing 147]   183
3  Cc1cc2ccccc2n1Cc1ccc(C(=O)NO)cc1 [drawing 137]  2127
4  O=C(NO)c1ccc(Cc2ccncc2)cc1 [drawing 145]   181

For every item in the list below, what is its measured HDAC6 Selectivity (HDAC1/HDAC6)?
1. Cc1c(CN)c2ccccc2n1Cc1ccc(C(=O)NO)cc1
2. O=C(NO)c1ccc(Cn2ccc3ccccc32)cc1 [drawing 136]

[2116, 598]

For every item in the list below, what is its measured HDAC6 Selectivity (HDAC1/HDAC6)?
1. CN1CCN(CCc2cn(Cc3ccc(C(=O)NO)cc3)c3ccccc23)CC1 [drawing 142]
2. O=C(NO)c1ccc(Cn2cc(Cc3ccccc3)c3ccccc32)cc1 [drawing 140]
3. O=C(NO)c1ccc(Cn2cccn2)cc1 [drawing 148]
4. Cc1cn(Cc2ccc(C(=O)NO)cc2)c2ccccc12 [drawing 138]
5. O=C(NO)c1ccc(CN2CCCC2)cc1 [drawing 150]

[418, 451, 135, 1329, 54]

Give HDAC6 Selectivity (HDAC1/HDAC6); test system Human HDAC6 (Homo sapiens (Human), UniProt Q9UBN7); molecule O=C(NO)c1ccc(Cn2cnc3ncncc32)cc1 [drawing 144]
251

Values were extracted from patent US9249087B2.
